Answer each item with its documented MIC.
test system: P. aeruginosa ATCC 27853; test: microbe, parasite or virus in culture; type: cell-based; conditions: ATCC 27853
Bridge positions count the residues as written; N and C are the ends. Square brackets hold non-standard residues; d marks the D form. Peptide text beside a SMILES is read from it. * marks the point of attachment. Phe(4-guanidino) = N=C(N)Nc1ccc(C[C@H](N)C(=O)O)cc1; Propanoyl(3-guanidino) = N=C(N)NCCC(=O)*
Answer format: numeric, µM implied, no suffix.

input: Query MIC on P. aeruginosa ATCC 27853 for CC[C@H](C)[C@H](NC(=O)[C@H](CCCNC(=N)N)NC(=O)[C@H]1CCC(=O)NCCCC[C@H](NC(=O)[C@H](Cc2ccc(NC(=N)N)cc2)NC(=O)[C@H](Cc2c[nH]c3ccccc23)NC(=O)[C@@H]2CCCN2C(=O)[C@@H](NC(=O)[C@@H](N)Cc2ccccc2)C(C)C)C(=O)N[C@@H](CCCCN)C(=O)N[C@@H](Cc2ccccc2)C(=O)N[C@H](CC(C)C)C(=O)N1)C(=O)N[C@@H](CC(C)C)C(N)=O [Peptide 8, FVPW(p-guanidino)F[KKFle]RIL] (H-FVPW[Phe(4-guanidino)]KKF[dL][dE]RIL-NH2; lactam 6-10)
output: 50

input: Queued: CC[C@H](C)[C@H](NC(=O)[C@H](CCCNC(=N)N)NC(=O)[C@H]1CCC(=O)NCCCC[C@H](NC(=O)[C@H](Cc2ccccc2)NC(=O)[C@H](Cc2c[nH]c3ccccc23)NC(=O)[C@@H]2CCCN2C(=O)[C@@H](NC(=O)[C@H](Cc2ccccc2)NC(=O)CCNC(=N)N)C(C)C)C(=O)N[C@@H](CCCCN)C(=O)N[C@@H](Cc2ccccc2)C(=O)N[C@H](CC(C)C)C(=O)N1)C(=O)N[C@@H](CC(C)C)C(N)=O [Peptide 4, guanidino-βAla-FVPWF[KKFle]RIL] ({Propanoyl(3-guanidino)}-FVPWFKKF[dL][dE]RIL-NH2; lactam 6-10)
output: 25
